// data source = the supplement of paper PMC10567573

Recorded protein stability index values for a group of variants are listed next.
B1: INTS4 (parent)
chain: YSSGEFSSGRKWGDDAPKEEVDTG

# Variants of: B1
# run-description: protein stability index of a GFP-peptide fusion (GPS, HEK-293T) (PSI 1-6); higher = more stable;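 further: lentivirally expressed fusions sorted by FACS into six bins by GFP to DsRed ratio, PSI derived from sequencing read proportions per bin multiplied by bin number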
# condition-context: c terminus: a fixed tail appended
Give the figure only, with no unit attached.

Solved cases (2 shown):
record-sequence | observation-type | result
YSSGFFSSGRKWGDDAPKEEVDTG [E5F] | protein stability index | 1.76
YSSGEFSSGRKWGDDAPKIEVDTG [E19I] | protein stability index | 2.32

// protein stability index lookup, key: YSSGEFSSGPKWGDDAPKEEVDTG [R10P]
2.3

Now the same for YSSGEFSSGRKWGDDAPKHEVDTG [E19H]
2.09

Record: YSYGEFSSGRKWGDDAPKEEVDTG [S3Y]
4.13

YSSGERSSGRKWGDDAPKEEVDTG [F6R] , same question.
4.63

Check YSSGEFSSGRKCGDDAPKEEVDTG [W12C] too.
2.7
